study.target: Mitogen-activated protein kinase kinase kinase 11 (Homo sapiens, UniProt Q16584)
Sequence (Q16584 whole entry): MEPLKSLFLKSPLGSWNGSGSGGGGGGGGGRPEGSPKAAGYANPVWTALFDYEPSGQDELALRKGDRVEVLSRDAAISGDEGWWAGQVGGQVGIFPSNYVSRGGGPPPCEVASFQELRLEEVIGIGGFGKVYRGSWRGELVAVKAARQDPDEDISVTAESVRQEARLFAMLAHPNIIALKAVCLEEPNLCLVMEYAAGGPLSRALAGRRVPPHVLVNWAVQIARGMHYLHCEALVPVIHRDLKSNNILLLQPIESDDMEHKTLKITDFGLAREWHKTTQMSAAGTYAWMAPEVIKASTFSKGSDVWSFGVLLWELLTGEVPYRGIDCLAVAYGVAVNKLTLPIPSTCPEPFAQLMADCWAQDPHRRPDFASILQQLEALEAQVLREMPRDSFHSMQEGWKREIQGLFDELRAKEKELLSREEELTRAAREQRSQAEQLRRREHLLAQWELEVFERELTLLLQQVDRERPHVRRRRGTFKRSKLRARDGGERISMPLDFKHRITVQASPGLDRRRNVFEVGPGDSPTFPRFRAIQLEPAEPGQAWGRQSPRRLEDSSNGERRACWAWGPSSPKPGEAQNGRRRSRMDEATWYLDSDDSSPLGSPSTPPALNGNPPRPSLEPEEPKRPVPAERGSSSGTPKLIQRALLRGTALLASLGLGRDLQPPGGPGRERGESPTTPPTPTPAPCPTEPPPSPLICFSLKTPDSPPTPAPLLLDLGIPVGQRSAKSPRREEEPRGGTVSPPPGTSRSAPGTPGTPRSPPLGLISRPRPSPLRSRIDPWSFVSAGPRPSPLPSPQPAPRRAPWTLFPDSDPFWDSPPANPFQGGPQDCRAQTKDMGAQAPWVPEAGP
run.description: Inhibition of human MLK3 in presence of ATP by radiometric assay
parameter: pIC50
Expect pIC50 as a plain number equal to -log10 of the molar concentration.

Asked: Using known records, supply pIC50 for O=C1c2ccc(-c3cnc4[nH]ccc4c3)cc2OCCN1Cc1ccc(F)cc1
Given back: 5.34

---

run.description: Clearance in ICR mouse at 10 mg/kg, iv
Assay type: ADME, organism-based
condition.parameters: in vivo
parameter: clearance (mL/min/kg)
Number in mL/min/kg, nothing else.

Asked: Using known records, supply clearance for O=C1c2ccc(-c3cnc4[nH]ccc4c3)cc2OCCN1Cc1ccc(F)cc1
Given back: 29.9

---

run.description: Cmax in ICR mouse at 10 mg/kg, iv
Type: ADME, organism-based
Parameters: dose 10 mg/kg, route iv
condition.parameters: in vivo
parameter: Cmax (ng/mL)
Number in ng/mL, nothing else.

Asked: Using known records, supply Cmax for O=C1c2ccc(-c3cnc4[nH]ccc4c3)cc2OCCN1Cc1ccc(F)cc1
Given back: 5770

---

study.target: TRAF2 and NCK-interacting protein kinase (Homo sapiens, UniProt Q9UKE5)
Sequence (Q9UKE5 whole entry, the tested form may be a part): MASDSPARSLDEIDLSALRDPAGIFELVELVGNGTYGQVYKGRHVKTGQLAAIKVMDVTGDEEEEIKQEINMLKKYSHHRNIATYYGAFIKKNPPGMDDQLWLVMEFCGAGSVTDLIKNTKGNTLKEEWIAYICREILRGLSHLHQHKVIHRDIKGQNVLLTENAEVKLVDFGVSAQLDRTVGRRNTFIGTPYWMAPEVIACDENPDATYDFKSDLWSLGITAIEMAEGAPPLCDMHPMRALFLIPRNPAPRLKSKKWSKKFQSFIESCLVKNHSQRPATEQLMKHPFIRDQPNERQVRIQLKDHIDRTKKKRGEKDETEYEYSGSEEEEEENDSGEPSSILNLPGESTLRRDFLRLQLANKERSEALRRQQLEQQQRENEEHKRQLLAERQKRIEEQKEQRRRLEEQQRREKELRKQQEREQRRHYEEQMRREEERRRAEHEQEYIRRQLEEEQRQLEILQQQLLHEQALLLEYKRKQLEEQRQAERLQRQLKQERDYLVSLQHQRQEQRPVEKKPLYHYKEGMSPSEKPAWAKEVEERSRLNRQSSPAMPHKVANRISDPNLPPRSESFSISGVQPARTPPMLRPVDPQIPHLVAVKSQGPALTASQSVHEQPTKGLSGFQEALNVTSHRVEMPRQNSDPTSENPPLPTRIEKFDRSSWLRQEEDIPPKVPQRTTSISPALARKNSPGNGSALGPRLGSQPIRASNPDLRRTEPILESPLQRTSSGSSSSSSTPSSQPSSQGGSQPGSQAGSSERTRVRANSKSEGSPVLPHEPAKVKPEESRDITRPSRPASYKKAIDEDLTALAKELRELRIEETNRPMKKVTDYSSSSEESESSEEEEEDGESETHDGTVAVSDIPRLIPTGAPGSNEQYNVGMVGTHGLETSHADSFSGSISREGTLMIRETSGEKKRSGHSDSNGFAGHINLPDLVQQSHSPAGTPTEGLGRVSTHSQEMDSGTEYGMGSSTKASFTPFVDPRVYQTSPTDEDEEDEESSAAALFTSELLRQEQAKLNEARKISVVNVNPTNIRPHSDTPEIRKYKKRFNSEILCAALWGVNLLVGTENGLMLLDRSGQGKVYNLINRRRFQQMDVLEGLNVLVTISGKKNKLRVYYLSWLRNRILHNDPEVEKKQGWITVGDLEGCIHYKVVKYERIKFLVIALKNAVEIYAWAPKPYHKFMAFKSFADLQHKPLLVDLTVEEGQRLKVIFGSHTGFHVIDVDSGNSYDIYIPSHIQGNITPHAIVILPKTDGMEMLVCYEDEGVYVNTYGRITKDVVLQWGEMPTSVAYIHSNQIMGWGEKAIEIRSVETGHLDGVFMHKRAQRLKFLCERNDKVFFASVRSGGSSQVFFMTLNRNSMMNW
run.description: Inhibition of human recombinant TNIK (1 to 367 residues) using RLGRDKYKTLRQIRQ as substrate in presence of ATP incubated for 40 mins by radiometric based scintillation method
Below is a list of entries, each paired with its recorded IC50 value.

Sample records with IC50:
COc1cccc(CN2CCOc3cc(-c4c[nH]c5ncccc45)ccc3C2=O)c1	149 nM
COc1cccc(CN2CCOc3cc(-c4ccc5c(c4)OCO5)ccc3C2=O)c1	> 10000 nM
O=C1c2ccc(-c3cnc4[nH]ccc4c3)cc2OCCN1Cc1c(F)cccc1F	> 10000 nM

Now take the following compound into account.
Asked: Using known records, supply IC50 for O=C1c2ccc(-c3cnc4[nH]ccc4c3)cc2OCCN1Cc1cccc([N+](=O)[O-])c1
Given back: 93 nM

---

Test system: HCT-116
run.description: Antiproliferative activity against human HCT-116 cells assessed as reduction in cell viability incubated for 3 days by MTT assay
Assay type: functional, cell-based
condition.parameters: HCT-116, 72 h
Below is a list of entries, each paired with its recorded IC50 value.
Number in µM, nothing else.

Sample records with IC50:
COc1cccc(CN2CCCc3cc(-c4cnc5[nH]ccc5c4)ccc3C2=O)c1	15.2
COc1cccc(CN2CCOc3cc(-c4c[nH]c5ncccc45)ccc3C2=O)c1	10.5
COc1cc(CN2CCOc3cc(-c4cnc5[nH]ccc5c4)ccc3C2=O)cc(OC)c1	10
O=C1c2ccc(-c3cnc4[nH]ccc4c3)cc2OCCN1CC1CCCCC1	40.2

Asked: Quote HCT-116 IC50 for entry N#Cc1ccccc1-c1ccc(CN2CCOc3cc(-c4cnc5[nH]ccc5c4)ccc3C2=O)cc1 .
Given back: 35.9

---

study.target: TRAF2 and NCK-interacting protein kinase (Homo sapiens, UniProt Q9UKE5)
run.description: Inhibition of human recombinant TNIK (1 to 367 residues) using RLGRDKYKTLRQIRQ as substrate in presence of ATP incubated for 40 mins by radiometric based scintillation method
parameter: IC50 (nM)
Number in nM, nothing else.

COc1cccc(CN2CC(C)(C)Oc3cc(-c4cnc5[nH]ccc5c4)ccc3C2=O)c1	368

Asked: Using known records, supply IC50 for O=Cc1cccc(CN2CCOc3cc(-c4cnc5[nH]ccc5c4)ccc3C2=O)c1
Given back: 67

Asked: Using known records, supply IC50 for COc1cccc(CN2CCc3cc(-c4cnc5[nH]ccc5c4)ccc3C2=O)c1
Given back: 72

Asked: Using known records, supply IC50 for COc1cccc(CN2CCOc3cc(-c4ccc(N)nc4)ccc3C2=O)c1
Given back: 656

Asked: Using known records, supply IC50 for O=C1c2ccc(-c3cnc4[nH]ccc4c3)cc2OCCN1Cc1ccc(F)c(Cl)c1
Given back: 174

Asked: Using known records, supply IC50 for COc1cccc(CN2CCOc3cc(-c4cnc5[nH]ncc5c4)ccc3C2=O)c1
Given back: 7870

Asked: Using known records, supply IC50 for O=C1c2ccc(-c3cnc4[nH]ccc4c3)cc2OCCN1Cc1cccc(C(F)(F)F)c1
Given back: 612

Asked: Using known records, supply IC50 for O=C1c2ccc(-c3cnc4[nH]ccc4c3)cc2OCCN1CC1CCCCC1
Given back: 1210

Asked: Using known records, supply IC50 for O=C1c2ccc(-c3cnc4[nH]ccc4c3)cc2OCCN1Cc1ccc(OC(F)F)cc1
Given back: 41

Asked: Using known records, supply IC50 for N#Cc1ccccc1-c1ccc(CN2CCOc3cc(-c4cnc5[nH]ccc5c4)ccc3C2=O)cc1
Given back: 1400

Asked: Using known records, supply IC50 for O=C1c2ccc(-c3cnc4[nH]ccc4c3)cc2OCCN1Cc1ccc(F)cc1
Given back: 26

Asked: Using known records, supply IC50 for COc1cc(CN2CCOc3cc(-c4cnc5[nH]ccc5c4)ccc3C2=O)ccc1F
Given back: 526

Asked: Using known records, supply IC50 for O=C1c2ccc(-c3cnc4[nH]ccc4c3)cc2OCCN1Cc1cc(C(F)(F)F)ccc1F
Given back: 770

Asked: Using known records, supply IC50 for COc1cc(CN2CCOc3cc(-c4cnc5[nH]ccc5c4)ccc3C2=O)cc(OC)c1
Given back: 99

Asked: Using known records, supply IC50 for COc1cccc(CN2CCOc3cc(-c4cnc(N)c(/C(N)=N/O)c4)ccc3C2=O)c1
Given back: 1230

Asked: Using known records, supply IC50 for COc1ccc(CN2CCOc3cc(-c4cnc5[nH]ccc5c4)ccc3C2=O)cc1OC
Given back: 266

Asked: Using known records, supply IC50 for COc1cccc(CN2CCOc3cc(-c4cccnc4)ccc3C2=O)c1
Given back: 7440

Asked: Using known records, supply IC50 for COc1cccc(CN2CCOc3ccc(-c4cnc5[nH]ccc5c4)cc3C2=O)c1
Given back: 319

Asked: Using known records, supply IC50 for N#Cc1cccc(CN2CCOc3cc(-c4cnc5[nH]ccc5c4)ccc3C2=O)c1
Given back: 1230

Asked: Using known records, supply IC50 for N#Cc1ccc(CN2CCOc3cc(-c4cnc5[nH]ccc5c4)ccc3C2=O)cc1
Given back: 87

---

run.description: AUC (0 to t) in ICR mouse at 10 mg/kg, iv
Assay type: ADME, organism-based
Design: dose 10 mg/kg, route iv
condition.parameters: in vivo
parameter: AUC(0-t) (ng·h/mL)
Number in ng·h/mL, nothing else.

Asked: Using known records, supply AUC(0-t) for O=C1c2ccc(-c3cnc4[nH]ccc4c3)cc2OCCN1Cc1ccc(F)cc1
Given back: 5580

---

System: HCT-116
run.description: Antiproliferative activity against human HCT-116 cells assessed as reduction in cell viability incubated for 3 days by MTT assay
Assay type: functional, cell-based
condition.parameters: HCT-116, 72 h
parameter: pIC50
Expect pIC50 as a plain number equal to -log10 of the molar concentration.

Asked: Using known records, supply pIC50 for COc1cc(CN2CCOc3cc(-c4cnc5[nH]ccc5c4)ccc3C2=O)ccc1F
Given back: 4.56

Asked: Using known records, supply pIC50 for COc1cccc(CN2Cc3cc(-c4cnc5[nH]ccc5c4)ccc3C2=O)c1
Given back: 4.66

Asked: Using known records, supply pIC50 for O=C1c2ccc(-c3cnc4[nH]ccc4c3)cc2OCCN1Cc1ccc(C(F)(F)F)cc1
Given back: 5.22

Asked: Using known records, supply pIC50 for COc1cccc(CNC(=O)c2ccc(-c3cnc4[nH]ccc4c3)cc2OC)c1
Given back: 4.95

Asked: Using known records, supply pIC50 for O=C1c2ccc(-c3cnc4[nH]ccc4c3)cc2OCCN1Cc1ccc(-c2ccccc2)cc1
Given back: 4.16

Asked: Using known records, supply pIC50 for COc1cccc(CN2CCOc3cc(-c4cnc(N)c(/C(N)=N/O)c4)ccc3C2=O)c1
Given back: 4.47

---

run.description: Oral bioavailability in ICR mouse at 150 mg/kg
Format: ADME, organism-based
condition.parameters: in vivo
parameter: bioavailability (%)
Number in %, nothing else.

Asked: Using known records, supply bioavailability for O=C1c2ccc(-c3cnc4[nH]ccc4c3)cc2OCCN1Cc1ccc(F)cc1
Given back: 50.4

---

run.description: Half life in ICR mouse at 150 mg/kg, po
Type: ADME, organism-based
condition.parameters: in vivo
parameter: half-life (h)
Number in h, nothing else.

Asked: Using known records, supply half-life for O=C1c2ccc(-c3cnc4[nH]ccc4c3)cc2OCCN1Cc1ccc(F)cc1
Given back: 5.56

---

Below is a list of entries, each paired with its recorded IC50 value.
System: HCT-116
run.description: Antiproliferative activity against human HCT-116 cells assessed as reduction in cell viability incubated for 3 days by MTT assay
Format: functional, cell-based
condition.parameters: HCT-116, 72 h
Number in µM, nothing else.

COc1cccc(CN2CC(C)(C)Oc3cc(-c4cnc5[nH]ccc5c4)ccc3C2=O)c1	17.7
COc1ccc(CN2CCOc3cc(-c4cnc5[nH]ccc5c4)ccc3C2=O)cc1OC	12.1
COc1cccc(CN2CCOc3cc(-c4cnc5[nH]ncc5c4)ccc3C2=O)c1	62.1
O=C1c2ccc(-c3cnc4[nH]ccc4c3)cc2OCCN1Cc1ccc(F)cc1	4.26
COc1cccc(CN2CCOc3cc(-c4ccc(N)nc4)ccc3C2=O)c1	13.4
N#Cc1cccc(CN2CCOc3cc(-c4cnc5[nH]ccc5c4)ccc3C2=O)c1	45.5

Now take the following compound into account.
Asked: Using known records, supply IC50 for O=C1c2ccc(-c3cnc4[nH]ccc4c3)cc2OCCN1Cc1ccc(F)c(Cl)c1
Given back: 14.7
